Origin of values: patent US9266834B2

Target: human mGluR2 receptor (Homo sapiens)
Construct: expressed in transfected cells; host or cells: CHO cells (membrane preparation)
Sequence (Q14416 19-872): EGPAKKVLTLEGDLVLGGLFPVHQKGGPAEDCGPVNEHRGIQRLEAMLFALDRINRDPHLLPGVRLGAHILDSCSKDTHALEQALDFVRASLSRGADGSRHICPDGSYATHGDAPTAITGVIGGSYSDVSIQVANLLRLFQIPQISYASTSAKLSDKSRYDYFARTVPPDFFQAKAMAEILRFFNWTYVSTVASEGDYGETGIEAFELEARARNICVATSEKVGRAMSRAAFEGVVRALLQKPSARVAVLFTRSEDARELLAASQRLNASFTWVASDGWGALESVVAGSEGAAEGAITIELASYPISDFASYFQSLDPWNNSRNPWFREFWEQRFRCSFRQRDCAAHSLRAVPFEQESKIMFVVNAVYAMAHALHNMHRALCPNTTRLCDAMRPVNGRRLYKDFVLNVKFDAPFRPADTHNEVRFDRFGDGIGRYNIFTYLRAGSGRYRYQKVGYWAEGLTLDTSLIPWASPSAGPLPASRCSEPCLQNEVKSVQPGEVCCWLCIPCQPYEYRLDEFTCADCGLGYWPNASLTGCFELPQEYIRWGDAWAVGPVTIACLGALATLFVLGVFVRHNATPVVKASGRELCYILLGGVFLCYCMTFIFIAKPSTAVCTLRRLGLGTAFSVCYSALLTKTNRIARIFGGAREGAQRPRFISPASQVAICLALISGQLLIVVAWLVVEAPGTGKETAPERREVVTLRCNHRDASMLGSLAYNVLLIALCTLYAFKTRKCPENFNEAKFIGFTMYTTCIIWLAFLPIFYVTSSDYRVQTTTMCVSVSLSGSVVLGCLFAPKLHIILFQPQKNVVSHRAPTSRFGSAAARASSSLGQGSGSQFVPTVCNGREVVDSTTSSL
Assay: [35S]GTPγS binding assay (GTPγS-PAM): positive allosteric modulation in presence of glutamate at EC25, membranes from transfected CHO cells
Assay type: biochemical
Conditions: in presence of mGluR2 agonist glutamate at predetermined EC25 concentration, averages of duplicate values of 11-concentration response curves, read-out: GTPgS - hR2 PAM pEC50 (converted)
Experimental: The compounds provided in the present invention are positive allosteric modulators of mGluR2. These compounds appear to potentiate glutamate responses by binding to an allosteric site other than the glutamate binding site. […] The [^35S]GTPγS binding is a functional membrane-based assay used to study G-protein coupled receptor (GPCR) function whereby incorporation of a non-hydrolysable form of GTP, [^35S]GTPγS (guanosine 5′-triphosphate, labelled with gamma-emitting ^35S), is measured. […]
measurement.type: EC50 (nM)

CC(C)CCn1ccc(-c2ccc(OCC3CC3)c(Cl)c2)c(C#N)c1=O [1-134] = 79.4
CCCCn1ccc(N2CCC(Oc3cccnc3)CC2)c(C#N)c1=O [4-004] = 3160
CN(c1ccn(Cc2ccc(OC(F)(F)F)cc2)c(=O)c1C#N)C1CCN(Cc2ccccc2)CC1 [3-013] = 3980

[P] CC(C)CCn1ccc(-c2ccc(N3CCOCC3)c(Br)c2)c(C#N)c1=O [1-226]
[Q] CN(Cc1ccccc1)C1CCN(c2ccn(Cc3ccc(F)cc3)c(=O)c2C#N)CC1 [4-056]
Prompt: Please compare: P and Q . Report which one has the smaller EC50 value. Identify your pick by its label.
Response: P
(P: 126 nM, Q: 5010 nM)

[a] COc1ccc(-c2ccn(CCC(C)C)c(=O)c2C#N)cc1Cl [1-112]
[b] CC(C)CCn1ccc(-c2ccc(OC(F)(F)F)cc2)c(C#N)c1=O [1-120]
Prompt: Among a and b , which shows a numerically higher EC50 result? Identify your pick by its label.
Response: b
(b: 501 nM, a: 316 nM)

[P] CC(=O)CCNc1ccc(-c2ccn(CCC(C)C)c(=O)c2C#N)cc1 [1-180]
[Q] CC(C)CCn1ccc(-c2ccc(OCCO)cc2)c(C#N)c1=O [1-099]
[R] CC(C)CCn1ccc(-c2ccc(-c3cnco3)cc2)c(C#N)c1=O [1-250]
[S] CC(C)CCn1ccc(N2CCOc3ccccc32)c(C#N)c1=O [5-030]
Prompt: Rank the 4 compounds: largest EC50 first, smallest last. The reply should contain the labels ordered as requested.
Response: S, R, Q, P

[a] CC(C)CCn1ccc(N2CCC(N(C)CCc3cccc(C(F)(F)F)c3)CC2)c(C#N)c1=O [4-032]
[b] CC(C)CCn1ccc(C#Cc2ccccc2)c(C#N)c1=O [1-267]
Prompt: Please compare: a and b . Report which one has the smaller EC50 value. Identify your pick by its label.
Response: b

[A] CC(C)CCn1ccc(-c2ccc3c(cnn3Cc3ccncc3)c2)c(C#N)c1=O [5-025]
[B] CCOc1ccc(-c2ccn(CCC(C)C)c(=O)c2C#N)cc1 [1-104]
[C] CC(C)CCn1ccc(-c2ccc(OCc3ccc(C#N)cc3)cc2)c(C#N)c1=O [1-153]
[D] COc1cc(-c2ccn(CCC(C)C)c(=O)c2C#N)ccc1OCCOC1CCCCO1 (stereo not drawn) [1-138]
Prompt: Rank the 4 compounds: largest EC50 first, smallest last. The reply should contain the labels ordered as requested.
Response: B, D, A, C

[1] N#Cc1c(-c2cccs2)ccn(Cc2ccc(C(F)(F)F)nc2)c1=O [1-046]
[2] N#Cc1c(-c2ccc(OCC3CC3)cc2F)ccn(CC2CC2)c1=O [1-003]
Prompt: Among 1 and 2 , which shows a numerically higher EC50 result? Identify your pick by its label.
Response: 1

[I] CC(C)CCn1ccc(-c2ccc(Oc3ccncc3)cc2)c(C#N)c1=O [1-156]
[II] COCc1cccc(-c2ccn(CCC(C)C)c(=O)c2C#N)c1 [1-107]
[III] COc1ccc(COc2ccn(CCC(C)C)c(=O)c2C#N)cc1F [1-283]
[IV] CC(C)CCn1ccc(N2CCN(Cc3ccc(OC(F)(F)F)c(Cl)c3)CC2)c(C#N)c1=O [2-022]
[V] N#Cc1c(N2CCC(c3ccccc3)CC2)ccn(CCOc2ccccc2)c1=O [4-066]
Prompt: Write the entries in order, lowest recorded EC50 first. The reply should contain the labels ordered as requested.
Response: V, IV, I, III, II
(V: 31.6 nM, IV: 158 nM, I: 501 nM, III: 794 nM, II: 3160 nM)

[a] CC(C)CCn1ccc(N2CCC(c3ccccc3)(N3CCOCC3)CC2)c(C#N)c1=O [4-044]
[b] CC(C)CCn1ccc(-c2cccc3[nH]ccc23)c(C#N)c1=O [5-017]
Prompt: Among a and b , which shows a numerically higher EC50 result? Identify your pick by its label.
Response: a
